The origin of these recorded values is patent EP4350345A2.

# Tested System: purified interference factor(s) from serum of Donor C
# Test Summary: SPR, interference factor on CM5 chip
Measurement Label: binding as % of Reference Sequence (=100%)

INSERT INTO results (binder, experimental_value) VALUES
  ('Nanobody or Nanobody construct of SEQ ID NO: 84 (VHH) VHH: EVQLVESGGGLVQPGGSLRLSCAASRSIGRLDRMGWYRHRPGEPRELVATITGGSSINYGDSVKGRFTISIDNSKNTVYLQMNSLRPEDTAVYYCNFNKYVTSRDTWGQGTLVTVGS', 83),
  ('Nanobody or Nanobody construct of SEQ ID NO: 82 (VHH) VHH: EVQLVESGGGLVQPGGSLRLSCAASRSIGRLDRMGWYRHRPGEPRELVATITGGSSINYGDSVKGRFTISIDNSKNTVYLQMNSLRAEDTAVYYCNFNKYVTSRDTWGQGTLVTVSS', 100),
  ('Nanobody or Nanobody construct of SEQ ID NO: 78 (VHH) VHH: EVQLVESGGGLVRPGGSLRLSCAASRSIGRLDRMGWYRHRPGEPRELVATITGGSSINYGDSVKGRFTISIDNSKNTVYLQMNSLRPEDTAVYYCNFNKYVTSRDTWGQGTLVTVSS', 100),
  ('Nanobody or Nanobody construct of SEQ ID NO: 85 (VHH) VHH: EVQLVESGGGSVQPGGSLRLSCAASRSIGRLDRMGWYRHRPGEPRELVATITGGSSINYGDSVKGRFTISIDNSKNTVYLQMNSLRPEDTAVYYCNFNKYVTSRDTWGQGTLVQVGG', 42),
  ('Nanobody or Nanobody construct of SEQ ID NO: 89 (VHH) VHH: EVQLVESGGGSVQAGGSLRLSCAASRSIGRLDRMGWYRHRPGEPRELVATITGGSSINYGDSVKGRFTISIDNSKNTVYLQMNSLRPEDTAVYYCNFNKYVTSRDTWGQGTLVQVGG', 17),
  ('Nanobody or Nanobody construct of SEQ ID NO: 87 (VHH) VHH: EVQLVESGGGSVQPGGSLRLSCAASRSIGRLDRMGWYRHRPGEPRELVATITGGSSINYGDSVKGRFTISIDNSKNTVYLQMNSLRPEDTAVYYCNFNKYVTSRDTWGQGTLVTVGG', 39);

a: Nanobody or Nanobody construct of SEQ ID NO: 70 (VHH) VHH: EVQLVESGGGLVQPGGSLRLSCAASRSIGRLDRMGWYRHRPGEPRELVATITGGSSINYGDSVKGRFTISIDNSKNTVYLQMNSLRPEDTAVYYCNFNKYVTSRDTWGQGTLVQVSS
b: Nanobody or Nanobody construct of SEQ ID NO: 83 (VHH) VHH: EVQLVESGGGLVQPGGSLRLSCAASRSIGRLDRMGWYRHRPGEPRELVATITGGSSINYGDSVKGRFTISIDNSKNTVYLQMNSLRPEDAAVYYCNFNKYVTSRDTWGQGTLVTVSS
**Query** Which gives the smaller binding as % of Reference Sequence (=100%) number: a or b ? The response must carry the label of the picked entry.
**Result** b

a: Nanobody or Nanobody construct of SEQ ID NO: 69 (VHH) VHH: EVQLVESGGGLVQPGGSLRLSCAASRSIGRLDRMGWYRHRPGEPRELVATITGGSSINYGDSVKGRFTISIDNSKNTVYLQMNSLRPEDTAVYYCNFNKYVTSRDTWGQGTQVTVSS
b: Nanobody or Nanobody construct of SEQ ID NO: 68 (VHH) VHH: EVQLVESGGGLVQAGGSLRLSCAASRSIGRLDRMGWYRHRPGEPRELVATITGGSSINYGDSVKGRFTISIDNSKNTVYLQMNSLRPEDTAVYYCNFNKYVTSRDTWGQGTQVTVSS
**Query** Which gives the smaller binding as % of Reference Sequence (=100%) number: a or b ? The response must carry the label of the picked entry.
**Result** b

a: Nanobody or Nanobody construct of SEQ ID NO: 65 (VHH) VHH: EVQLVESGGGLVQAGGSLRLSCAASRSIGRLDRMGWYRHRPGEPRELVATITGGSSINYGDSVKGRFTISIDNSKNTVYLQMNSLRPEDTAVYYCNFNKYVTSRDTWGQGTLVTVSS
b: Nanobody or Nanobody construct of SEQ ID NO: 67 (VHH) VHH: EVQLVESGGGLVQPGGSLRLSCAASRSIGRLDRMGWYRHRPGEPRELVATITGGSSINYGDSVKGRFTISIDNSKNTVYLQMNSLKPEDTAVYYCNFNKYVTSRDTWGQGTLVTVSS
**Query** API: POST /compare with a and b ; response names the item with higher binding as % of Reference Sequence (=100%). The response must carry the label of the picked entry.
**Result** b
(b: 96%, a: 64%)

P: Nanobody or Nanobody construct of SEQ ID NO: 81 (VHH) VHH: EVQLVESGGGVVQPGGSLRLSCAASRSIGRLDRMGWYRHRPGEPRELVATITGGSSINYGDSVKGRFTISIDNSKNTVYLQMNSLRPEDTAVYYCNFNKYVTSRDTWGQGTLVTVSS
Q: Nanobody or Nanobody construct of SEQ ID NO: 80 (VHH) VHH: EVQLVESGGGLVQPGGSLRLSCAASRSIGRLDRMGWYRHRPGEPRELVATITGGSSINYGDSVKGRFTISIDNSKNTVYLQMNSLRPEDTAVYYCNFNKYVTSRDTWGQGTLVQVGG
**Query** Which gives the smaller binding as % of Reference Sequence (=100%) number: P or Q ? The response must carry the label of the picked entry.
**Result** Q
(Q: 58%, P: 89%)
